# test-details: Tmax in Sprague-Dawley rat plasma at 10 mg/kg, po
# Assay type: ADME, organism-based
# Design: dose 10 mg/kg, route oral
property-name: Tmax (h)
Respond numerically; units are h and should not be typed.

Fill in the blank: the reported Tmax of `O=C(Nc1ccc2c(c1)CCC(CN1CCCC1)=C2)c1ccc(-c2ccc(F)cc2)cc1` is ____.
8

----------
# test-details: Cmax in Sprague-Dawley rat forebrain at 10 mg/kg, po
# Format: ADME, organism-based, Brain
# Set-up: dose 10 mg/kg, route oral
property-name: Cmax

Fill in the blank: the reported Cmax of `O=C(Nc1ccc2c(c1)CCC(CN1CCCC1)=C2)c1ccc(-c2ccc(F)cc2)cc1` is ____.
17300 ng/g
